Molecular target: T1, human CD105 (R&D Systems, Catalog No. 1097-EN) (human, UniProt P17813 26-586)
T1 construct: Captured on the plate by mouse anti-human CD105 (Southern Biotechnologies 9811-01); also called endoglin
T1 sequence (looked up): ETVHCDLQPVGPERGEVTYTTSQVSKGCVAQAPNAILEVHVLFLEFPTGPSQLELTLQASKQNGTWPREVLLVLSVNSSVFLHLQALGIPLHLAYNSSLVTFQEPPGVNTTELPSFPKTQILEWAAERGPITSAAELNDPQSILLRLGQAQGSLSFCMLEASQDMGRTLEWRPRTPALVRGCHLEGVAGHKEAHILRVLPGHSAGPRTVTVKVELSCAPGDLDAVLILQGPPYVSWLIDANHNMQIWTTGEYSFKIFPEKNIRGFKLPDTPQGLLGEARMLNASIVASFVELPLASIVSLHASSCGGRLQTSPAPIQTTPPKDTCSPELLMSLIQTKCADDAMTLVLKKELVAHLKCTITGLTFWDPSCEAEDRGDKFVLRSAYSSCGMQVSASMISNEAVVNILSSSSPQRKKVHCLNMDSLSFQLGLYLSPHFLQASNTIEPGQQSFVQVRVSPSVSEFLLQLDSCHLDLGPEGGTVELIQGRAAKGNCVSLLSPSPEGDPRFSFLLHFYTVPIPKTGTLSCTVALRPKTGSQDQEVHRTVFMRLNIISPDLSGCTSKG
Experiment: competition ELISA on captured human CD105; competitor biotinylated chimeric anti-CD105
propertyMeasured: Relative IC50 (fold of chimeric anti-endoglin antibody)

Solved cases below.
binder	assayValue
VK2SAVH1Q (antibody, V domains shown, IgG1 heavy chain, kappa light chain) VH: EVQLVESGGGLVKPGGSLRLSCAASGFTFSDAWMDWVRQAPGKGLEWVGEIRSQASNHATYYAESVKGRFTISRDDSKNTLYLQMNSLKTEDTAVYYCTRWRRFFDSWGQGTLVTVSS VL: DIQLTQSPSSLSASVGDRVTISCRASSSVSYMHWYQQKPGKAPKPWAYATSNLASGVPSRFSGSGSGTDYTLTISSLQPEDFATYYCQQWSSNPLTFGGGTKVEIK	0.87 fold relative to chimeric
VK2SAVH1S (antibody, V domains shown, IgG1 heavy chain, kappa light chain) VH: EVQLVESGGGLVKPGGSLRLSCAASGFTFSDAWMDWVRQAPGKGLEWVSEIRSKASNHATYYAESVKGRFTISRDDSKNTLYLQMNSLKTEDTAVYYCTRWRRFFDSWGQGTLVTVSS VL: DIQLTQSPSSLSASVGDRVTISCRASSSVSYMHWYQQKPGKAPKPWAYATSNLASGVPSRFSGSGSGTDYTLTISSLQPEDFATYYCQQWSSNPLTFGGGTKVEIK	0.96 fold relative to chimeric
VK1AAVH1Q (antibody, V domains shown, IgG1 heavy chain, kappa light chain) VH: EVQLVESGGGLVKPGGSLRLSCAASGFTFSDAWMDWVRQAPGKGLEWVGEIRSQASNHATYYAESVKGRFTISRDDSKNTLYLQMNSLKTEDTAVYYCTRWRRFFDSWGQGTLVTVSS VL: DIQMTQSPSSLSASVGDRATITCRASSSVSYMHWYQQKPGKAPKPWAYATSNLASGVPSRFSGSGSGTDYTLTISSLQPEDFATYYCQQWSSNPLTFGGGTKVEIK	1.3 fold relative to chimeric

Req: Quick one: Relative IC50 (fold of chimeric anti-endoglin antibody) for VK2SAVH1A2 (antibody, V domains shown, IgG1 heavy chain, kappa light chain) VH: EVQLVESGGGLVKPGGSLRLSCAASGFTFSDAWMDWVRQAPGKGLEWVGEARSKASNHATYYAESVKGRFTISRDDSKNTLYLQMNSLKTEDTAVYYCTRWRRFFDSWGQGTLVTVSS VL: DIQLTQSPSSLSASVGDRVTISCRASSSVSYMHWYQQKPGKAPKPWAYATSNLASGVPSRFSGSGSGTDYTLTISSLQPEDFATYYCQQWSSNPLTFGGGTKVEIK ?
Resp: 0.84 fold relative to chimeric

Req: // same read-out, input: VK1AAVH1A2 (antibody, V domains shown, IgG1 heavy chain, kappa light chain; also called humanized/deimmunized anti-endoglin antibody VK1AAVH1A2) VH: EVQLVESGGGLVKPGGSLRLSCAASGFTFSDAWMDWVRQAPGKGLEWVGEARSKASNHATYYAESVKGRFTISRDDSKNTLYLQMNSLKTEDTAVYYCTRWRRFFDSWGQGTLVTVSS VL: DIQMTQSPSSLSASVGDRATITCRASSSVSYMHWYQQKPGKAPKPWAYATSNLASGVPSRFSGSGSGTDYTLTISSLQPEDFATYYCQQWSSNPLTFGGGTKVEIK
Resp: 1.12 fold relative to chimeric

Sourced from patent US20200048360A1
